These measurements were taken from patent US20220288057A1.

- assay_notes: Terminal plasma and brain concentrations in AC-MES studies (UHPLC-MS/MS)
- Type: in vivo, mouse
- condition_description: male, CF-1, mouse, in vivo, po, 10 mg/kg, Study 4B; Compound A 10 mg/kg single oral dose; CF-1 mice; read-out: Mean Plasma

sample_smiles: Cc1cc(N2CCc3cc(F)ccc3C2)cc(C)c1NC(=O)CC(C)(C)C
measurement_units: nM
concentration at 30 min: 550

---

- assay_notes: Plasma and brain concentrations in 6 Hz studies (LC-MS/MS)
- Format: in vivo, mouse
- condition_description: mouse, brain, po, 4 mg/kg, Study 3C, Compound A 4 mg/kg PO 1 h alone; read-out: Brain
experimental_endpoint: concentration at 1 h (nM)

sample_smiles: Cc1cc(N2CCc3cc(F)ccc3C2)cc(C)c1NC(=O)CC(C)(C)C
experimental_endpoint: concentration at 1 h
recorded_result: 410

---

- assay_notes: Plasma and brain concentrations in 6 Hz studies (LC-MS/MS)
- Format: in vivo, mouse
- condition_description: CF-1, mouse, plasma, po, 4 mg/kg, Study 3B, Compound A 4 mg/kg PO 1 h alone; read-out: Plasma

molecule: Cc1cc(N2CCc3cc(F)ccc3C2)cc(C)c1NC(=O)CC(C)(C)C [Compound A]
measurement_units: nM
concentration at 1 h: 14

---

- assay_notes: Terminal plasma and brain concentrations in AC-MES studies (UHPLC-MS/MS)
- Format: in vivo, mouse
- condition_description: male, CF-1, mouse, in vivo, po, 10 mg/kg, Study 4A; Compound A 10 mg/kg single oral dose; read-out: B/P Ratio (brain to plasma ratio)

sample_smiles: Cc1cc(N2CCc3cc(F)ccc3C2)cc(C)c1NC(=O)CC(C)(C)C
Kp at 30 min: 1.36

---

- assay_notes: Terminal plasma and brain concentrations in AC-MES studies (UHPLC-MS/MS)
- Format: in vivo, mouse
- condition_description: male, CF-1, mouse, in vivo, po, 5 mg/kg, Study 4B, Compound A 5 mg/kg PO, 0.5 h; read-out: mean plasma concentration

compound: Cc1cc(N2CCc3cc(F)ccc3C2)cc(C)c1NC(=O)CC(C)(C)C [Compound A]
concentration at 0.5 h: 470 nM

---

- assay_notes: Terminal plasma and brain concentrations in AC-MES studies (UHPLC-MS/MS)
- Assay type: in vivo, mouse
- condition_description: male, CF-1, mouse, in vivo, po, 3 mg/kg, Study 4C; Compound A 3 mg/kg single oral dose; read-out: B/P Ratio (brain to plasma ratio)
- Description: Sample Collection and Preparation: Mice were anesthetized by isoflurane inhalation (according to SOP TECH-018) until they reached a surgical plane of anesthesia. […] Plasma Samples: Extraction of plasma samples was carried out by protein precipitation using acetonitrile. […] The samples were analyzed by ultra-high performance liquid chromatography electrospray ionization tandem mass spectrometry (UHPLC-ESI-MS/MS) as described in the bioanalysis procedure below. […]

compound: Cc1cc(N2CCc3cc(F)ccc3C2)cc(C)c1NC(=O)CC(C)(C)C [Compound A]
Kp at 30 min: 1.79

---

- assay_notes: Terminal plasma and brain concentrations in AC-MES studies (UHPLC-MS/MS)
- Type: in vivo, mouse
- condition_description: male, CF-1, mouse, in vivo, po, 3 mg/kg, Study 4C; Compound A 3 mg/kg single oral dose; CF-1 mice; read-out: Mean Plasma

sample_smiles: Cc1cc(N2CCc3cc(F)ccc3C2)cc(C)c1NC(=O)CC(C)(C)C
measurement_units: nM
concentration at 30 min: 280

---

- assay_notes: Plasma and brain concentrations after MES testing (UHPLC-ESI-MS/MS)
- condition_description: CF-1, mouse, in vivo, po, 1 mg/kg, Concentration Brain, Compound A 1 mg/kg PO single dose, tissue collection 2 hr

sample_smiles: Cc1cc(N2CCc3cc(F)ccc3C2)cc(C)c1NC(=O)CC(C)(C)C
concentration at 2 h: 190 nM

---

- assay_notes: Plasma and brain concentrations after MES testing (UHPLC-ESI-MS/MS);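 further: brain and plasma were sampled from mice right after the efficacy test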
- condition_description: CF-1, mouse, in vivo, po, 4 mg/kg, Concentration Plasma, Compound A 4 mg/kg PO single dose, tissue collection 2 hr

sample_smiles: Cc1cc(N2CCc3cc(F)ccc3C2)cc(C)c1NC(=O)CC(C)(C)C
measurement_units: nM
concentration at 2 h: 230

---

- assay_notes: Terminal plasma and brain concentrations in AC-MES studies (UHPLC-MS/MS)
- Format: in vivo, mouse
- condition_description: CF-1, mouse, in vivo, 7.5 mg/kg, Cenobamate 7.5 mg/kg PO, 2 h, alone; read-out: mean plasma concentration

compound: NC(=O)O[C@@H](Cn1ncnn1)c1ccccc1Cl [Cenobamate, reference compound]
measurement_units: µM
concentration at 2 h: 78.1

---

- assay_notes: Terminal plasma and brain concentrations in AC-MES studies (UHPLC-MS/MS)
- Assay type: in vivo, mouse
- condition_description: CF-1, mouse, in vivo, 7.5 mg/kg, Study 4E; Cenobamate 7.5 mg/kg single oral dose, 2 h pre-treatment; CF-1 mice; read-out: Mean Brain

compound: NC(=O)O[C@@H](Cn1ncnn1)c1ccccc1Cl [Cenobamate, reference compound]
concentration at 2 h (µM): 34.5

---

- assay_notes: Clinical observations / behavioral signs in AC-MES studies
- Assay type: in vivo, mouse
- condition_description: male, CF-1, mouse, in vivo, 10 mg/kg, Study 4A, Compound A 10 mg/kg group; read-out: plasma concentration of individual mouse showing behavioral signs (tremors, decreased activity, splayed hindlimbs)

sample_smiles: Cc1cc(N2CCc3cc(F)ccc3C2)cc(C)c1NC(=O)CC(C)(C)C
measurement_units: nM
concentration at 30 min: 390

---

- assay_notes: Plasma and brain concentrations in 6 Hz studies (LC-MS/MS)
- Type: in vivo, mouse
- condition_description: mouse, plasma, intraperitoneal, Study 3B, analyte Levetiracetam; 300 mg/kg IP + Compound A 4 mg/kg PO; read-out: Plasma

compound: CC[C@@H](C(N)=O)N1CCCC1=O [Levetiracetam, reference compound]
measurement_units: µM
concentration at 1 h: 1350

---

- assay_notes: Terminal plasma and brain concentrations in AC-MES studies (UHPLC-MS/MS)
- Assay type: in vivo, mouse
- condition_description: male, CF-1, mouse, in vivo, po, 5 mg/kg, Study 4A, Compound A 5 mg/kg PO, 0.5 h; read-out: mean plasma concentration

sample_smiles: Cc1cc(N2CCc3cc(F)ccc3C2)cc(C)c1NC(=O)CC(C)(C)C
concentration at 0.5 h: 280 nM

---

- assay_notes: Plasma and brain concentrations in 6 Hz studies (LC-MS/MS)
- Format: in vivo, mouse
- condition_description: mouse, brain, oral, Study 3C, analyte Compound A; 4 mg/kg PO + Levetiracetam 300 mg/kg IP; read-out: Brain

sample_smiles: Cc1cc(N2CCc3cc(F)ccc3C2)cc(C)c1NC(=O)CC(C)(C)C
concentration at 1 h, nM: 383

---

- assay_notes: Terminal plasma and brain concentrations in AC-MES studies (UHPLC-MS/MS)
- Format: in vivo, mouse
- condition_description: CF-1, mouse, in vivo, 8 mg/kg, Study 2A, Lacosamide 8 mg/kg PO, 2 h; read-out: Mean Plasma

compound: COC[C@@H](NC(C)=O)C(=O)NCc1ccccc1 [Lacosamide, reference compound]
concentration at 2 h, µM: 10.8

---

- assay_notes: Terminal plasma and brain concentrations in AC-MES studies (UHPLC-MS/MS)
- Type: in vivo, mouse
- condition_description: CF-1, mouse, in vivo, 10 mg/kg, Study 2C, Lacosamide 10 mg/kg PO, 2 h, alone; read-out: Mean Plasma

compound: COC[C@@H](NC(C)=O)C(=O)NCc1ccccc1 [Lacosamide, reference compound]
concentration at 2 h [µM]: 17.1

---

- assay_notes: Terminal plasma and brain concentrations in AC-MES studies (UHPLC-MS/MS)
- Type: in vivo, mouse
- condition_description: CF-1, mouse, in vivo, 3 mg/kg, Study 4E; Cenobamate 3 mg/kg single oral dose, 2 h pre-treatment; CF-1 mice; read-out: Mean Plasma
- Protocol: Sample Collection and Preparation: Mice were anesthetized by isoflurane inhalation (according to SOP TECH-018) until they reached a surgical plane of anesthesia. […] Plasma Samples: Extraction of plasma samples was carried out by protein precipitation using acetonitrile. […] The samples were analyzed by ultra-high performance liquid chromatography electrospray ionization tandem mass spectrometry (UHPLC-ESI-MS/MS) as described in the bioanalysis procedure below. […]

molecule: NC(=O)O[C@@H](Cn1ncnn1)c1ccccc1Cl [Cenobamate, reference compound]
measurement_units: µM
concentration at 2 h: 27.7

---

- assay_notes: Terminal plasma and brain concentrations in AC-MES studies (UHPLC-MS/MS)
- Type: in vivo, mouse
- condition_description: male, CF-1, mouse, in vivo, 10 mg/kg, Study 4A; Compound A 10 mg/kg single oral dose, 30 min pre-treatment; CF-1 mice; read-out: Brain
experimental_endpoint: concentration at 30 min

sample_smiles: Cc1cc(N2CCc3cc(F)ccc3C2)cc(C)c1NC(=O)CC(C)(C)C
recorded_result: 500 nM
